Assay: CellTiter-Glo luminescent readout of SW480 viability loss, NPC library primary (AID 1117343)
Conditions: CellTiter-Glo luminescence; at 20 µM (top of the series) unless noted
Calls of active or inactive are those of the source.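 Rule for the calls: active = compounds that lower viability of the colon cancer cells in the luminescence readout, with no numeric limit stated; inactive = the rest.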
quantityMeasured: viability decrease (inhibition)

// solved cases for viability decrease (inhibition) follow
INSERT INTO measurements (molecule, quantitymeasured, recordedresult) VALUES
  ('Cc1ccc(C(=O)c2cc(O)c(O)c([N+](=O)[O-])c2)cc1', 'viability decrease (inhibition)', '84.4% (active)'),
  ('C[C@H]1C[C@H]2[C@@H]3CCC4=CC(=O)C=C[C@]4(C)[C@H]3C(=O)C[C@]2(C)[C@@]1(O)C(=O)CO', 'viability decrease (inhibition)', '0.2% (inactive)'),
  ('CC(C)OC(=O)OCOP(=O)(CO[C@H](C)Cn1cnc2c(N)ncnc21)OCOC(=O)OC(C)C', 'viability decrease (inhibition)', '22.7% (inactive)');

Attention now turns to another entry.
get_value(item= CN1C(=O)CC[C@H]1c1cccnc1 , readout=viability decrease (inhibition)) returns -3% (inactive)

---

Test: growth inhibition of RCMB18 medulloblastoma cells, cell-based, cisplatin and BGB IC40 combos (AID 1671462);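 note: cells exposed to compound for four days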
Conditions: cisplatin combo, at 5 µM, stronger effect = higher value
Measured inhibition, listed per entry for reference.
Returns: string containing the number followed by the unit.

INSERT INTO results (chemicalstring, quantitymeasured, recordedresult) VALUES
  ('CN1C[C@@H]2C[C@H]1CN2c1cc2c(cc1F)c(=O)c(C(=O)O)cn2C1CC1', 'inhibition', '-18.3%'),
  ('C[C@@H](CN1CC(=O)NC(=O)C1)N1CC(=O)NC(=O)C1', 'inhibition', '-55.6%'),
  ('Nc1ncn([C@H]2C[C@H](O)[C@@H](CO)O2)c(=O)n1', 'inhibition', '-31%');

Please turn your attention to the following entry.
The reported inhibition of the compound N=C(N=C(N)N)N1CCOCC1 was -26%

---

Tested on: R275C/Slo1WT/beta2
Experiment: modulators of BK channel variants, profiling panel, selectivity assay, cell-based, U2OS BacMam, thallium flux, beta subunits (AID 1259406);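 note: initial slope of Thallos dye fluorescence rise after thallium is added; log ratio against the mean of 0.3% DMSO vehicle wells on the same plate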
Conditions: at 30 µM
quantityMeasured: log fold change Tl+ flux
The reply should be a number, written without any unit.

// worked examples, log fold change Tl+ flux included
INSERT INTO assay_data (compound, testedon, recordedresult) VALUES
  ('CN/C(=C\[N+](=O)[O-])NCCSCc1ccc(CN(C)C)o1', 'R275C/Slo1WT/beta2', -0.015),
  ('CNCCC=C1c2ccccc2CCc2ccccc21', 'R275C/Slo1WT/beta2', -0.0571),
  ('CC(C(=O)O)c1cccc(C(=O)c2ccccc2)c1 (stereo unspecified)', 'R275C/Slo1WT/beta2', -0.0223),
  ('Cn1cc[nH]c1=S', 'R275C/Slo1WT/beta2', 0.019),
  ('CC(C)OC(=O)C(C)(C)Oc1ccc(C(=O)c2ccc(Cl)cc2)cc1', 'R275C/Slo1WT/beta2', 0.0641);

Moving on to the next compound.
Lab book: log fold change Tl+ flux of Cc1cccc(C)c1NC(=O)C1CCCCN1C (stereo unspecified) noted as -0.0173

---

Catalogue of luciferase signal readings, one per entry.
Biological target: Mitogen-activated protein kinase 7 (Homo sapiens) (UniProt Q13164)
Sequence (Q13164 whole entry, looked up, the tested form may be a part): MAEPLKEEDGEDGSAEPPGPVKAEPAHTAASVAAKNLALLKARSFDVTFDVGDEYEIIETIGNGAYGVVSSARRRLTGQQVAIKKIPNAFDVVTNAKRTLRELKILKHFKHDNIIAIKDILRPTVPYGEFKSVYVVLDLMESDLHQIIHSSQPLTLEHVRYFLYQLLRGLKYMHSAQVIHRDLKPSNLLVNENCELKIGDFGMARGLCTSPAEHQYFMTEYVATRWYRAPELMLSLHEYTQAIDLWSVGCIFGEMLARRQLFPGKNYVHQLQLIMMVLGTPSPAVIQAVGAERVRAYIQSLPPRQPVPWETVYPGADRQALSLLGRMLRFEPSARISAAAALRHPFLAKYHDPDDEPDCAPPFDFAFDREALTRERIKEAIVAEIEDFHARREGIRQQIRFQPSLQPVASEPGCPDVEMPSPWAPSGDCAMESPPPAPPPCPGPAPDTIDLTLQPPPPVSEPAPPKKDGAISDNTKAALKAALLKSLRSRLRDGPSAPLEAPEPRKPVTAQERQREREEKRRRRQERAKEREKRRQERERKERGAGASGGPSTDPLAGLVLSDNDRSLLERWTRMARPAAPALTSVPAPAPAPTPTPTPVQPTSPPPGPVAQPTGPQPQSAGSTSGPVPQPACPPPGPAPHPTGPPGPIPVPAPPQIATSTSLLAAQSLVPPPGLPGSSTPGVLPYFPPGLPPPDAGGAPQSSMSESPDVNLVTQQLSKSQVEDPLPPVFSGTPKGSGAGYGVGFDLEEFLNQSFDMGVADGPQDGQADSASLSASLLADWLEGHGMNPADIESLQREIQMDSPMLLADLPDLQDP
Assay: ERK5 transactivation activators in reporter cells, primary screen, cell-based, HTS (AID 1508626);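 note: luciferase driven by Gal4-ERK5 fusion binding five Gal4 sites before minimal TATA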
Settings: HeLa Gal4-ERK5 transactivation, 18 h, at 5 µM, stronger effect = higher value
The source made the active and inactive calls.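 The calls were made as follows: active = luciferase signal above three times the same-plate solvent-only control wells; inactive = the rest.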

INSERT INTO assay_data (compound, recordedresult) VALUES
  ('CCc1ccc(CCOc2ccc(CC3SC(=O)NC3=O)cc2)nc1 (stereo unspecified)', '48 AU (inactive)'),
  ('O=C(Nc1ccccc1)Nc1ccccc1', '108 AU (inactive)'),
  ('O=c1cc(-c2cc(O)c(O)c(O)c2)oc2cc(O)cc(O)c12', '72 AU (inactive)'),
  ('Cc1cc(/C=C/c2ccc3cc(N(C)C)ccc3[n+]2C)c(C)n1-c1ccccc1', '28 AU (inactive)'),
  ('Cc1cc(O)c2c(c1O)C(=O)c1c(O)cc(C)c(O)c1C2=O', '48 AU (inactive)');

Switching to the query record.
Query COc1cc2c(cc1OC)C1(O)C(=O)c3ccc(O)c(C(=O)O)c3OC1CO2 (stereo unspecified) yields luciferase signal of 16 AU (inactive)
